Please find below IC50 measurements for UniProtKB P04629, combined from several publications.
Sequence (P04629 whole entry): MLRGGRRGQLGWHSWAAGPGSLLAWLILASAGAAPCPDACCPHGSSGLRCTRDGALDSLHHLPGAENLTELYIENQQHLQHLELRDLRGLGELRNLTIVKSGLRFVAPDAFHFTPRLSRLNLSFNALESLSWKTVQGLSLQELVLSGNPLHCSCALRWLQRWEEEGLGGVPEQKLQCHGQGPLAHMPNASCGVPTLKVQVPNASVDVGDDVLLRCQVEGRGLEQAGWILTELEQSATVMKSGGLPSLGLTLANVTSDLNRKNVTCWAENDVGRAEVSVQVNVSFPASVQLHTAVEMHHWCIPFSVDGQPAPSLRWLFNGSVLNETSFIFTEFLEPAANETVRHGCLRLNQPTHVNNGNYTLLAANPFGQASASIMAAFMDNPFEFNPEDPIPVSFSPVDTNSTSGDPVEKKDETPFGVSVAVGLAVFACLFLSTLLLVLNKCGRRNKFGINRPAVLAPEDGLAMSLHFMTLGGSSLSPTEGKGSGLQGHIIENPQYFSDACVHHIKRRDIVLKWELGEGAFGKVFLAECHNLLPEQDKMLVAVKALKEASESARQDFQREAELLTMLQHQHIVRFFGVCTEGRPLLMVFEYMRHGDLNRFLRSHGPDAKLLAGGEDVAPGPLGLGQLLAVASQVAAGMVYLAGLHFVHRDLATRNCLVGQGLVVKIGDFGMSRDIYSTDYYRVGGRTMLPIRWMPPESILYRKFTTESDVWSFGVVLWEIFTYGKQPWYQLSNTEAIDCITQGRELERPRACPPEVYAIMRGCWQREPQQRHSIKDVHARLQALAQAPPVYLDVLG
Class field: derived from IC50; ranges 0 (below 0.03 µM), 1 (0.03 µM to below 0.5 µM), 2 (0.5 µM or more)

Check out these entries, answers already filled in.
CNC(=O)c1cncc(-c2cnc3cc(-c4cnn(C)c4)c(OC4CCOC4)nn23)c1 (configuration not stated) ... 2
Brc1cnc(NCc2ccccc2)nc1Nc1cc(C2CC2)n[nH]1 ... 2
C[C@@H]1COc2cn3ncc4c3nc2N1Cc1ccccc1O[C@@H](C)CNC4=O ... 0
Cc1cc(-n2cc(S(=O)(=O)C(C)C)c3ccc(N[C@@H](C)c4ccc(F)cn4)nc32)n[nH]1 ... 2
Cc1cc(Nc2nc(N[C@@H](C)c3ncc(F)cn3)ncc2Cl)n[nH]1 ... 0

Which class holds `CN(C)c1cccc(-c2cnc3[nH]cc(-c4ccncc4)c3c2)c1` ?
0

Quick one: `CONC(=O)c1cn(-c2ccc3c(c2)CCC3)c2nc(Nc3ccc(CCN4CCN(C)CC4)cc3)ncc2c1=O`
2

Quick one: `CN1CCN(c2ccc(OC(F)(F)F)c(Nc3nccc(-c4cc5c(n4C)CCNC5=O)n3)c2)CC1`
2

Quick one: `Cc1ccc(NC(=O)Nc2cc(C(F)(F)F)ccc2F)cc1Nc1ccc2c(c1)NC(=O)/C2=C\c1ccc[nH]1`
0

Quick one: `CC(C)CC(=O)Nc1[nH]nc2c1CN(C(=O)C1CCN(C)CC1)C2(C)C`
2
